This listing pairs compounds with measured Herbicidal effects Monochoria.
- Tested on: monochoria
- assay explanation: Test Example 1: herbicidal test by water treatment in a paddy field
- Type: in vivo, Monochoria vaginalis Presl
- Parameters: key: 5: Withered; 4.5: Herbicidal effect (or phytotoxicity) in a range of 90 to 99%; 4: Herbicidal effect (or phytotoxicity) in a range of 80 to 89%; 3.5: Herbicidal effect (or phytotoxicity) in a range of 70 to 79%; 3: Herbicidal effect (or phytotoxicity) in a range of 60 to 69%; 2.5: Herbicidal effect (or phytotoxicity) in a range of 50 to 59%; 2: Herbicidal effect (or phytotoxicity) in a range of 40 to 49%; 1.5: Herbicidal effect (or phytotoxicity) in a range of 30 to 39%; 1: Herbicidal effect (or phytotoxicity) in a range of 20 to 29%; 0.5: Herbicidal effect (or phytotoxicity) in a range of 1 to 19%; 0: No herbicidal effect (or no phytotoxicity)
- experimental conditions: water treatment in paddy field pot, dose of active ingredient 4 kg/hectare, evaluated thirty days after application
measure: Herbicidal effects Monochoria

{"compound": "NC(=O)NOc1cccc(Cl)c1 [Comparative Compound]", "measured value": 0}
{"compound": "CC(C)N(C)C(=O)NOc1cc(Cl)cc(Cl)c1 [Compound No. 186]", "measured value": 5}
{"compound": "CON(C)C(=O)NOc1cc(Cl)ccc1Cl [Compound No. 242]", "measured value": 5}
{"compound": "COCCNC(=O)NOc1cc(Cl)ccc1Cl [Compound No. 243]", "measured value": 5}
